Source of measurements: the supplement of paper PMC10567573

Each entry below carries its recorded protein stability index.
B1: MNAT1 (parent)
chain: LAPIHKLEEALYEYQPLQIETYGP

- Variants of: B1
- EXPERIMENT: protein stability index of a GFP-peptide fusion (GPS, HEK-293T) (PSI 1-6); higher = more stable;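 note: lentivirally expressed fusions sorted by FACS into six bins by GFP to DsRed ratio, PSI derived from sequencing read proportions per bin multiplied by bin number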
- ASSAY_CONDITIONS: c terminus: a fixed tail appended
Note: the reply should be a number with no unit written.

VARIANT_ID	protein stability index
Y22Q	2.66
E9D	2.25
P16V	2.23
Q15L	1.73

// recorded protein stability index for I19L : 2.89

// recorded protein stability index for L7D : 4.04

// recorded protein stability index for L17I : 2.1

// recorded protein stability index for P24G : 1.82

// recorded protein stability index for E13I : 2.17

// recorded protein stability index for L17F : 1.84

// recorded protein stability index for L17W : 1.95

// recorded protein stability index for P3Q : 1.67

// recorded protein stability index for L7W : 3.02

// recorded protein stability index for G23E : 1.86
